# system: HLA-A*03:01
# test summary: IEDB peptide-MHC binding, purified MHC/competitive/fluorescence; filed as Kd, often an IC50 or EC50 that approximates it; bounds were set here for any values at or beyond the usual limits of such assays
# run parameters: source organism: Vaccinia virus Copenhagen
metric name: Kd

Missing value: Kd, HLA-A*03:01, entry `MTRVTNNVY` . Fill in?
≥ 20 µM

* * *

# system: HLA-A*01:01
# test summary: IEDB peptide-MHC binding, purified MHC/competitive/radioactivity; filed as Kd, often an IC50 or EC50 that approximates it; bounds were set here for any values at or beyond the usual limits of such assays
# run parameters: source organism: Dengue virus 2 Jamaica/1409/1983
Assign pKd to each entry below.
Answers are plain numbers, as −log10 of the molar value.

LTSSQQKADW ... 4.96

Requested field: pKd. Item: `VSQHNYRPGY`
5.17
